# experimental-system: PDE3 (Homo sapiens)
# Construct: investigated in homogenates of human blood platelets; from tissue; host or cells: human blood platelets (homogenate)
# Sequence (Q14432 whole entry): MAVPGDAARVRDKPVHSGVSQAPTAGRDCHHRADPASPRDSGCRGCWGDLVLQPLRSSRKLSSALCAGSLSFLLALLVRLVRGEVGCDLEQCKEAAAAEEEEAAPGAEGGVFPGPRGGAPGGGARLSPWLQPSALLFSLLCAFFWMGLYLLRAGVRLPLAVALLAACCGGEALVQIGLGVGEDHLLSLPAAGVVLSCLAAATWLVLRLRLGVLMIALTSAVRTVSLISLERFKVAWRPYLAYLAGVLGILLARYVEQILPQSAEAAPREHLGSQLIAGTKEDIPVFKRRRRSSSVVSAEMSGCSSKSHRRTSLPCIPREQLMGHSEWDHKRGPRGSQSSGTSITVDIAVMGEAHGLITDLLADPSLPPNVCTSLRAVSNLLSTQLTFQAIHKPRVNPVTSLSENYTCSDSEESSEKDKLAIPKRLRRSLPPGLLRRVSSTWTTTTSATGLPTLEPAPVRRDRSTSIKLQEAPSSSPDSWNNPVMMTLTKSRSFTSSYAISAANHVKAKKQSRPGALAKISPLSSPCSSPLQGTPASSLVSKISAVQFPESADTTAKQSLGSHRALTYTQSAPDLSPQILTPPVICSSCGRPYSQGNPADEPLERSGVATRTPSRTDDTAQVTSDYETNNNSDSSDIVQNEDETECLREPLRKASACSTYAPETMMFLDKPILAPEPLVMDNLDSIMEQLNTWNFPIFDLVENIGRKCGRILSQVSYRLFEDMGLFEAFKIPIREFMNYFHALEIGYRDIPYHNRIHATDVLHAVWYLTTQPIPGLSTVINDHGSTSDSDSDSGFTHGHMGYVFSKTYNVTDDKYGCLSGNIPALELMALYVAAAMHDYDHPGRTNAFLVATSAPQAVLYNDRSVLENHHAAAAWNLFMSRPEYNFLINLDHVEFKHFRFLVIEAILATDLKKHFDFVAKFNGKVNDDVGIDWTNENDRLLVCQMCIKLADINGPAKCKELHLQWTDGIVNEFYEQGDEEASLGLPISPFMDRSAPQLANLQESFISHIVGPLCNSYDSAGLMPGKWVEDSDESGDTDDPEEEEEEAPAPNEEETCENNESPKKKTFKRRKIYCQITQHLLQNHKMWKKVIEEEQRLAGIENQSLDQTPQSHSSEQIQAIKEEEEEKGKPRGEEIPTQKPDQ
# assay-info: Inhibition of PDE isoenzymes: PDE3 (cGMP-inhibited), homogenates of human blood platelets
# Assay type: biochemical
# measurement-parameters: 0.5 μM cAMP or cGMP, pH 7.4, 37° C., 15 min, read-out: -log IC50 PDE3 (converted)

| compound | experimental-system | IC50 / µM |
| --- | --- | --- |
| CCOc1ccc(C2=NN(c3ccc(C4=NNC(=O)CC4C)cc3)C(=O)[C@H]3CC=CC[C@@H]23)cc1OCC (relative stereo) [Compound 14] | PDE3 (Homo sapiens) | 0.275 |
| COc1ccc(C2=NN(c3ccc(C4=NNC(=O)CC4C)cc3)C(=O)[C@@H]3CC=CC[C@H]23)cc1OC (stereo partly drawn) [Compound 16] | PDE3 (Homo sapiens) | 0.437 |
| COc1ccc(C2=NN(CC(=O)Nc3ccc(-c4ccc(=O)[nH]n4)cc3)C(=O)[C@@H]3CC=CC[C@H]23)cc1OC (relative stereo) [Compound 5] | PDE3 (Homo sapiens) | 1.26 |

Values compiled from patent US6255303A.
